assay: self-splicing fitness, log relative to wild type (ln ratio); higher = more splicing; Tetrahymena group I intron in knt gene, E. coli kanamycin selection, DiMSum; sequences stand for … in CUCUCU…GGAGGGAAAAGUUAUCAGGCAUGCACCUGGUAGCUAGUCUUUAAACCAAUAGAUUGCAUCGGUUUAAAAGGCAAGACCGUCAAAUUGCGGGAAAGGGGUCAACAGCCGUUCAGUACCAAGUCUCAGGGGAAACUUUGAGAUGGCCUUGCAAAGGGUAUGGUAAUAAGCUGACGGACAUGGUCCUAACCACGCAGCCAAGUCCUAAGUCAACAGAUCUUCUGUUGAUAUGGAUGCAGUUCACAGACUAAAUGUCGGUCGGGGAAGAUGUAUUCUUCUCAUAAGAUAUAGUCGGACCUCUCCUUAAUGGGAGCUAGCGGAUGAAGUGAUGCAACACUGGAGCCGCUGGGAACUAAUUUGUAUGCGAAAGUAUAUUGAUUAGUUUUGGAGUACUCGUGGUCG; settings: 30 °C;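 note: selection with 25 µg/mL kanamycin versus none on LB agar overnight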
parameter measured: self-splicing fitness (ln)
Format: numeric value only, no unit, no commentary.

# construct sequence, observed
rows = [
    ("AAAGAGCAAUAUUACGUGAU", -2.95),
    ("CGUUAGCAAUAUUACGGGCG", -3.04),
    ("UCUGAGCAAUAUUACGGAAA", -3.08),
]

# return recorded self-splicing fitness (ln) for input `GAUCAGCAAUAUUACGACCC`
-2.02

---

Property: self-splicing fitness (ln); scope: individual sequences
test: self-splicing fitness, log relative to wild type (ln ratio); higher = more splicing; Tetrahymena group I intron in knt gene, E. coli kanamycin selection, DiMSum; sequences stand for … in CUCUCU…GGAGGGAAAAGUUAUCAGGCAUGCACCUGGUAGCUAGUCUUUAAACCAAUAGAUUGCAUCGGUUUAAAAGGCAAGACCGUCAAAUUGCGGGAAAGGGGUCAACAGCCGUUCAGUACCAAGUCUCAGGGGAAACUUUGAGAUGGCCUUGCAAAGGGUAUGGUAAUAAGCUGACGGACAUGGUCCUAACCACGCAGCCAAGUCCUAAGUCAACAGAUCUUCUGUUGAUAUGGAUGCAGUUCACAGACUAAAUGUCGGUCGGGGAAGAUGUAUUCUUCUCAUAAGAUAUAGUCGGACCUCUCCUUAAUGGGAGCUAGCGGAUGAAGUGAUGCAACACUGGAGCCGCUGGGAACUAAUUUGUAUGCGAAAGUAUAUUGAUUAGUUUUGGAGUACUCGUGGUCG; conditions: 30 °C

Use the examples below as a reference point.
# construct sequence, self-splicing fitness (ln)
data = [
    ("CCCAAGCAAUAUUACGGUUG", -3.99),
    ("GCCUAGCAAUAUUACGAUGU", -0.317),
    ("UCCAAGCAAUAUUACGGGUC", -3.16),
    ("UAGCAGCAAUAUUACGAGUA", -1.39),
    ("UGGUAGCAAUAUUACGUGUG", -1.29),
    ("GCUGAGCAAUAUUACGGAUA", -2.7),
    ("UGCGAGCAAUAUUACGGGGA", -2.81),
    ("CCGAAGCAAUAUUACGUUUA", -3.96),
]

# return recorded self-splicing fitness (ln) for input `GUAGAGCAAUAUUACGUUCC`
-1.77

# return recorded self-splicing fitness (ln) for input `CACGAGCAAUAUUACGGAGA`
-3.38

# return recorded self-splicing fitness (ln) for input `CUUUAGCAAUAUUACGAUAA`
-2.76
